target: Bcl-xL, Q07817; assay: peptide SPOT array, c-Myc-tagged receptor at 1 uM or 100 nM, anti-c-Myc-Cy3
Sequence (Q07817 1-209): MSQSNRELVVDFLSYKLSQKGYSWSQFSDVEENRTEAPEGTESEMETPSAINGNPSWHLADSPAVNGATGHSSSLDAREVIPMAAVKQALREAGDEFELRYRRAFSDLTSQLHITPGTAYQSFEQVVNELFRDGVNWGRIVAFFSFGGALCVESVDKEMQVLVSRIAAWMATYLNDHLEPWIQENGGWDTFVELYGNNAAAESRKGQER
Strictly below 0.06 in SPOT signal as a fraction of Bim BH3's signal on the same receptor and array: 1. Otherwise: 0.

As a guide, the following entries are already answered.
| binder | classification |
| --- | --- |
| FGEYSGISENIILVLDDFWIPETSFI [ROS1] | 0 |
| AALFLHAGCQLLTALEDGKVQVWSGS [TEP1] | 1 |
| ADLYEEAAENLHQLSDKLPAPGRAMV [MTBP] | 1 |
| DQEEACASRQLHSLLSFSTVTARRNP [INCA1] | 0 |
| LMARPAVALHFQSILDGFKEAVRYVL [SOS2] | 0 |

Confirm or reject: SPOT signal as a fraction of Bim BH3's signal on the same receptor and array of AFTEREASEIMKSILEAIQYLHSINI [MAPKAPK2] lies strictly below 0.06 1

Confirm or reject: SPOT signal as a fraction of Bim BH3's signal on the same receptor and array of LRVSTKIGSCMKSVLEVMGIGRSFEE [CAD] lies strictly below 0.06 1

Origin of values: paper PMC4072508
